- measured on: T1, human soluble IL6-R (human, UniProt P08887 20-358)
- T1 chain: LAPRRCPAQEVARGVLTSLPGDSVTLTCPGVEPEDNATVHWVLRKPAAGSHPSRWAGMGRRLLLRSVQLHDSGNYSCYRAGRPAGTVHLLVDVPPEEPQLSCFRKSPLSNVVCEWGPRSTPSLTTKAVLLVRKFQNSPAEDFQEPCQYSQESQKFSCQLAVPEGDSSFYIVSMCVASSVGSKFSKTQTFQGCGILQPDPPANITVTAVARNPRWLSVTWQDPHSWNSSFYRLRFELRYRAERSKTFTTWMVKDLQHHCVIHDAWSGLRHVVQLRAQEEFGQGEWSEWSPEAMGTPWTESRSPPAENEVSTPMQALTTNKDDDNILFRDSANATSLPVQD
- assay procedure: Alphascreen inhibition of IL6/IL6-R interaction
measurement type: EC50 (pM)

binder	EC50 (pM)
IL6R13 (VHH) VHH: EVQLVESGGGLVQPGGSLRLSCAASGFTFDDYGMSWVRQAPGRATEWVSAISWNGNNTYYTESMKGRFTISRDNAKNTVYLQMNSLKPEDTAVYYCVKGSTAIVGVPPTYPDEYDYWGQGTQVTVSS	50.5
IL6R75 (VHH) VHH: EVQLVESGGGLVQPGGSLRLSCAASGFTFSDYDIGWFRQAPGKGREGVSGISSSDGNTYYADSVKGRFTISRDNAKNTLYLQMNSLRPEDTAVYYCAAEPPDSSWYLDGSPEFFKYWGQGTLVTVSS	43.2

Where do these numbers come from? They come from patent US20180016342A1.
